Consider the following binders; for each one, report its Kd.
- MEASURED_TARGET: T1, Cbx7 K33E chromodomain (tags removed) (human, UniProt O95931 7-66, K33E)
- T1 construct: chromodomain of human Cbx7 (Cbx7-chromo), UniProt O95931; source: E. coli BL21(DE3), purified (Ni-NTA; tags removed with TEV protease)
- T1 sequence: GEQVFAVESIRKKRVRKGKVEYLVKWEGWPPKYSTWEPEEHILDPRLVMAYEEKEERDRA
- ASSAY_NOTES: fluorescence polarisation; 0.5 nM FITC-labelled peptide; chromodomains 200-0.2 µM (wild type) or 50 µM-50 nM (Cbx7.V1 and all Cbx.VDs); 30 min at 25 °C; 25 mM HEPES pH 7.5, 150 mM NaCl, 1 mM DTT, 0.01% TritonX-100; one-site total binding model
- TEST_CONDITIONS: both partners purified
Answers are plain numbers, in µM.

[
  {
    "BINDER": "KQLATKAARKSAPATGGVK (trimethyl-lysine at K27; fluorescein isothiocyanate (FITC) at the N-terminus) [H3K27me3 peptide, N-terminal FITC]",
    "UOM": "µM",
    "Kd": 20
  }
]

Next:
IN: // returns reported Kd for input ARTKQTARKSTGGKAPR (trimethyl-lysine at K9; fluorescein isothiocyanate (FITC) at the N-terminus) [H3K9me3 peptide, N-terminal FITC]
OUT: 20

Data provenance: paper PMC9666628
